B1: H2-Kb / G6 (parent)
chain 1: AQSVTQPDARVTVSEGASLQLRCKYSYFGTPYLFWYVQYPRQGLQLLLKYYPGDPVVQGVNGFEAEFSKSNSSFHLRKASVHWSDWAVYFCAVTPGGSNAKLTFGKGTKLSVKS
chain 2: NSGVVQSPRYIIKGKGERSILKCIPISGHLSVAWYQQTQGQELKFFIQHYDKMERDKGNLPSRFSVQQFDDYHSEMNMSALELEDSAVYFCASSRQGGDNNQAPLFGEGTRLSVL
chain 3: not shown
chain 4: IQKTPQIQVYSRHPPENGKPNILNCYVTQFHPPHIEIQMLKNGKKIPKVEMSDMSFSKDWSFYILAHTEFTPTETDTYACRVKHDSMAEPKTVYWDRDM
chain 5: SIINFEKL

- Variants of: B1
- protocol: % of reporter cells activated (NFAT-GFP), raw; note: test concentration or dose not given here
- condition: with G6; scale: % of reporter cells activated
recorded.metric: ratio to parent

mutation_descriptor="chain 5 N4T" recorded_metric="ratio to parent" obs_value=0.235
mutation_descriptor="chain 5 N4I" recorded_metric="ratio to parent" obs_value=0.272
mutation_descriptor="chain 5 S1N" recorded_metric="ratio to parent" obs_value=0.239
mutation_descriptor="chain 5 S1F" recorded_metric="ratio to parent" obs_value=0.449
mutation_descriptor="chain 5 K7P" recorded_metric="ratio to parent" obs_value=0.346
mutation_descriptor="chain 5 S1H" recorded_metric="ratio to parent" obs_value=0.218
mutation_descriptor="chain 5 N4K" recorded_metric="ratio to parent" obs_value=0.42
mutation_descriptor="chain 5 I3Y" recorded_metric="ratio to parent" obs_value=0.272
mutation_descriptor="chain 5 E6N" recorded_metric="ratio to parent" obs_value=0.63
mutation_descriptor="chain 5 F5S" recorded_metric="ratio to parent" obs_value=0.362
mutation_descriptor="chain 5 E6H" recorded_metric="ratio to parent" obs_value=0.494
mutation_descriptor="chain 5 L8E" recorded_metric="ratio to parent" obs_value=0.173
mutation_descriptor="chain 5 E6G" recorded_metric="ratio to parent" obs_value=0.506
mutation_descriptor="chain 5 K7S" recorded_metric="ratio to parent" obs_value=0.963
mutation_descriptor="chain 5 I2N" recorded_metric="ratio to parent" obs_value=0.321
mutation_descriptor="chain 5 S1R" recorded_metric="ratio to parent" obs_value=1.64
mutation_descriptor="chain 5 N4L" recorded_metric="ratio to parent" obs_value=0.284
mutation_descriptor="chain 5 K7R" recorded_metric="ratio to parent" obs_value=14.4
mutation_descriptor="chain 5 L8H" recorded_metric="ratio to parent" obs_value=7.85
mutation_descriptor="chain 5 K7E" recorded_metric="ratio to parent" obs_value=0.276
mutation_descriptor="chain 5 S1G" recorded_metric="ratio to parent" obs_value=0.235
mutation_descriptor="chain 5 K7M" recorded_metric="ratio to parent" obs_value=0.379
mutation_descriptor="chain 5 S1Y" recorded_metric="ratio to parent" obs_value=0.156
mutation_descriptor="chain 5 K7L" recorded_metric="ratio to parent" obs_value=0.259
mutation_descriptor="chain 5 I2D" recorded_metric="ratio to parent" obs_value=0.412
mutation_descriptor="chain 5 F5D" recorded_metric="ratio to parent" obs_value=0.313
mutation_descriptor="chain 5 F5P" recorded_metric="ratio to parent" obs_value=0.272
mutation_descriptor="chain 5 K7V" recorded_metric="ratio to parent" obs_value=0.235
mutation_descriptor="chain 5 I3S" recorded_metric="ratio to parent" obs_value=0.181
mutation_descriptor="chain 5 K7F" recorded_metric="ratio to parent" obs_value=0.189
mutation_descriptor="chain 5 N4P" recorded_metric="ratio to parent" obs_value=0.198
mutation_descriptor="chain 5 I2K" recorded_metric="ratio to parent" obs_value=0.551
mutation_descriptor="chain 5 L8F" recorded_metric="ratio to parent" obs_value=0.218
mutation_descriptor="chain 5 I2S" recorded_metric="ratio to parent" obs_value=0.115
mutation_descriptor="chain 5 N4A" recorded_metric="ratio to parent" obs_value=0.251
mutation_descriptor="chain 5 I3Q" recorded_metric="ratio to parent" obs_value=0.193
mutation_descriptor="chain 5 S1V" recorded_metric="ratio to parent" obs_value=1.09
mutation_descriptor="chain 5 N4S" recorded_metric="ratio to parent" obs_value=0.193
mutation_descriptor="chain 5 I2P" recorded_metric="ratio to parent" obs_value=0.329
mutation_descriptor="chain 5 L8I" recorded_metric="ratio to parent" obs_value=0.819
mutation_descriptor="chain 5 E6S" recorded_metric="ratio to parent" obs_value=0.428
mutation_descriptor="chain 5 N4M" recorded_metric="ratio to parent" obs_value=0.173
mutation_descriptor="chain 5 N4F" recorded_metric="ratio to parent" obs_value=0.202
mutation_descriptor="chain 5 I3V" recorded_metric="ratio to parent" obs_value=1.18
mutation_descriptor="chain 5 F5V" recorded_metric="ratio to parent" obs_value=0.116
mutation_descriptor="chain 5 I3D" recorded_metric="ratio to parent" obs_value=0.239
